Assay: in vivo
Settings: dog, iv, 43 ng/kg/min
RECORDED_ENDPOINT: level at time molar at 0.5 h (nM)
# number only, unit nM dropped from output

Q) Identify measured level at time molar at 0.5 h corresponding to H-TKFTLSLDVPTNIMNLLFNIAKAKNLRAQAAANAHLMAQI-NH2 [SEQ ID NO: 1]
A) 1.05

====

Assay: Human pharmacokinetics, healthy subjects, 24- or 72-hour infusion of 54 ng/kg/min
Conditions: in vivo, 54 ng/kg/min, healthy subjects, 24- or 72-hour infusion of 54 ng/kg/min, read-out: mean clearance
RECORDED_ENDPOINT: clearance

Q) Identify measured clearance corresponding to H-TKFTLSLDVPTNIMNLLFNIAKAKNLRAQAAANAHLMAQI-NH2 [SEQ ID NO: 1]
A) 4.67 to 6.33 mL/min/kg
